targetEntity: PDGFRβ (Homo sapiens, UniProt P09619)
Construct: expressed in transfected cells; host or cells: porcine aorta endothelial (PAE) cells
Sequence (P09619 33-1106): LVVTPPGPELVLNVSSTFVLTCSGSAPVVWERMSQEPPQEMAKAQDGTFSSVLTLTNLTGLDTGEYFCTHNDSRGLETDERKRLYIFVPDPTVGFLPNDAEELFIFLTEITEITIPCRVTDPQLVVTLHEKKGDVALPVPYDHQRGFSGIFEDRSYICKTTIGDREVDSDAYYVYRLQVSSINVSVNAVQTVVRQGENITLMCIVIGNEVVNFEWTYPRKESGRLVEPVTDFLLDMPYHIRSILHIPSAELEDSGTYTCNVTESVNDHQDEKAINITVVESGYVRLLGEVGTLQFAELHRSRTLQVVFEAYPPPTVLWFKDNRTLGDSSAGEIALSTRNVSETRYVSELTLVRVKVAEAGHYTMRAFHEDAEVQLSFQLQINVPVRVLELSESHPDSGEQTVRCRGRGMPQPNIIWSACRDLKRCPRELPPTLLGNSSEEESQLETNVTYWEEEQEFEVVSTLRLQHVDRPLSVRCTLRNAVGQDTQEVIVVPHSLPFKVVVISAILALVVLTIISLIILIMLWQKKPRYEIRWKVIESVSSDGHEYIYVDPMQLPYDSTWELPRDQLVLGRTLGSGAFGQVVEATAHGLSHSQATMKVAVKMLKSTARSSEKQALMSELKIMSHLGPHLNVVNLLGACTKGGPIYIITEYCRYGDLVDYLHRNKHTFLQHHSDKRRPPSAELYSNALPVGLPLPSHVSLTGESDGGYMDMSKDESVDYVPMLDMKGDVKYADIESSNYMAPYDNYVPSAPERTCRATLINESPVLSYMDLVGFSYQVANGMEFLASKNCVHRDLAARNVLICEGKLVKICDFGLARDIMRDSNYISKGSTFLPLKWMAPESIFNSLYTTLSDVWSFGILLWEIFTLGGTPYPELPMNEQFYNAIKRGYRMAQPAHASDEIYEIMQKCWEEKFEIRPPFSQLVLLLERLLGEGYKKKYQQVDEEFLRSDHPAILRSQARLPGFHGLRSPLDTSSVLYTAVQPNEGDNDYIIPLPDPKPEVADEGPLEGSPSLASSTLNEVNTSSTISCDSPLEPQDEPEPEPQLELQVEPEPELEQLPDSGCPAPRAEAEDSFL
measurementProtocol: PAE-PDGFRβ phosphorylation in PAE-PDGFRB cells assay
Format: cell-based
measurementContext: PAE cells overexpressing human PDGFRβ, PDGF-BB stimulated; read-out: PAE PDGFR autophos IC50
resultType: log10 of IC50 (log10 of the value in µM)
Reminder: these figures are log10 of reported IC50, in µM before transformation.

Lab note: measured log10 of IC50 of CCNC(=O)n1c(C)cc2cc(Oc3ccnc4cc(C(=O)N5CC[C@H](OC)C5)sc34)ccc21 [Example 9e] was -1.59

Briefly, log10 of IC50 measured for CNC(=O)n1c(C)cc2cc(Oc3ccnc4cc(C(=O)N5CC[C@@H](N(C)C)C5)sc34)ccc21 [Example 8g] : -1.81

According to the records, this molecule CNC(=O)n1c(C)cc2c(F)c(Oc3ccnc4cc(C(=O)N5CCC[C@H]5COC)sc34)ccc21 [Example 5a] displays log10 of IC50 of -2.42

Sure, the documented log10 of IC50 for C#CCNC(=O)n1c(C)cc2c(F)c(Oc3ccnc4cc(C(=O)N5CC[C@H](OC)C5)sc34)ccc21 [Example 5g] is -1.95

Lab note: measured log10 of IC50 of CO[C@H]1CCN(C(=O)c2cc3nccc(Oc4ccc5c(c4)cc(C)n5C(=O)NCC#CC4CC4)c3s2)C1 [Example 4i] was -2.26

# log10 of IC50 (molecule: CCOC(=O)c1csc(-c2cc3nccc(Nc4ccc5c(c4)cc(C)n5C(=O)NC)c3s2)n1 [Example 3c] ) is -0.20

All values here come from patent US6833456B2.
